system: 873145-292-R-J1-PDC complex spheroid viability; assay: Anticancer human tumor 873145-292-R-J1-PDC patient-derived renal clear cell carcinoma cell line growth inhibition [POLQ]; details: second compound 3.16 µM; first compound 0.0316 µM; stronger effect = lower value

- compound: "CC1COCCN1c1cc(-c2ccnn2C)c2ccnc(-c3ccn[nH]3)c2n1 (stereo not given) + COC1C(OC(N)=O)C(O)C(Oc2ccc3c(O)c(NC(=O)c4ccc(O)c(CC=C(C)C)c4)c(=O)oc3c2C)OC1(C)C"
  unit_abbreviation: "%"
  viability, T/C: 85.1
- compound: "O=C(Nc1ccc(O)c(NS(=O)(=O)c2ccc(F)cc2)c1)c1ccc(-c2ccccc2)cc1 + Nc1ccc(C#CCN(C(=O)Cc2ncc(C(F)(F)F)cc2C(F)(F)F)c2ccc(F)cc2)nn1"
  unit_abbreviation: "%"
  viability, T/C: 113
- compound: "COc1cccc2c1C(=O)c1c(O)c3c(c(O)c1C2=O)CC(O)(C(=O)CO)CC3OC1CC(N)C(O)C(C)O1 (stereo not given) + Nc1ccc(C#CCN(C(=O)Cc2ncc(C(F)(F)F)cc2C(F)(F)F)c2ccc(F)cc2)nn1"
  unit_abbreviation: "%"
  viability, T/C: 92.4
- compound: "COc1cc(C2c3cc4c(cc3C(OC3OC5COC(C)OC5C(O)C3O)C3COC(=O)C23)OCO4)cc(OC)c1O (stereo not given) + COC1C(OC(N)=O)C(O)C(Oc2ccc3c(O)c(NC(=O)c4ccc(O)c(CC=C(C)C)c4)c(=O)oc3c2C)OC1(C)C"
  unit_abbreviation: "%"
  viability, T/C: 107
- compound: "CCc1cc2c(N3CCc4c(cc(Cn5ccnc5)cc4-c4cn(C)nc4C(F)(F)F)C3=O)ccnc2c(OC)n1 + Cc1cccc(N(C)C(=O)C2C(O)CCN2c2nc(C)cc(C(F)(F)F)c2C#N)c1"
  unit_abbreviation: "%"
  viability, T/C: 88.2

###

test system: 873145-292-R-J1-PDC complex spheroid viability; experiment: Anticancer human tumor 873145-292-R-J1-PDC cell line growth inhibition [POLQ]; conditions: second compound 10 µM; first compound 0.316 µM; stronger effect = lower value;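 note: luminescence signal used as surrogate for viable cell content; spheroids exposed to compounds for 7 days before viability readout; 100% = DMSO vehicle control viability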
Some compounds, each annotated with its measured viability, T/C.

- compound: "Nc1ccn(C2OC(CO)C(O)C2(F)F)c(=O)n1 (stereo unspecified) + Cc1cccc(N(C)C(=O)C2C(O)CCN2c2nc(C)cc(C(F)(F)F)c2C#N)c1"
  target_entity: "873145-292-R-J1-PDC complex spheroid viability"
  viability, T/C, %: 62.9
- compound: "CCc1cc2c(N3CCc4c(cc(Cn5ccnc5)cc4-c4cn(C)nc4C(F)(F)F)C3=O)ccnc2c(OC)n1 + COC1C(OC(N)=O)C(O)C(Oc2ccc3c(O)c(NC(=O)c4ccc(O)c(CC=C(C)C)c4)c(=O)oc3c2C)OC1(C)C"
  target_entity: "873145-292-R-J1-PDC complex spheroid viability"
  viability, T/C, %: 87
- compound: "CC1COCCN1c1cc(C2(S(C)(=N)=O)CC2)nc(-c2ccnc3[nH]ccc23)n1 (stereo unspecified) + COC1C(OC(N)=O)C(O)C(Oc2ccc3c(O)c(NC(=O)c4ccc(O)c(CC=C(C)C)c4)c(=O)oc3c2C)OC1(C)C"
  target_entity: "873145-292-R-J1-PDC complex spheroid viability"
  viability, T/C, %: 95.6
- compound: "CC1COCCN1c1cc(C2(S(C)(=N)=O)CC2)nc(-c2ccnc3[nH]ccc23)n1 (stereo unspecified) + Cc1cccc(N(C)C(=O)C2C(O)CCN2c2nc(C)cc(C(F)(F)F)c2C#N)c1"
  target_entity: "873145-292-R-J1-PDC complex spheroid viability"
  viability, T/C, %: 98.4
- compound: "COc1cccc2c1C(=O)c1c(O)c3c(c(O)c1C2=O)CC(O)(C(=O)CO)CC3OC1CC(N)C(O)C(C)O1 (stereo unspecified) + COC1C(OC(N)=O)C(O)C(Oc2ccc3c(O)c(NC(=O)c4ccc(O)c(CC=C(C)C)c4)c(=O)oc3c2C)OC1(C)C"
  target_entity: "873145-292-R-J1-PDC complex spheroid viability"
  viability, T/C, %: 78.2
- compound: "COc1cccc2c1C(=O)c1c(O)c3c(c(O)c1C2=O)CC(O)(C(=O)CO)CC3OC1CC(N)C(O)C(C)O1 (stereo unspecified) + Cc1cccc(N(C)C(=O)C2C(O)CCN2c2nc(C)cc(C(F)(F)F)c2C#N)c1"
  target_entity: "873145-292-R-J1-PDC complex spheroid viability"
  viability, T/C, %: 80.3
- compound: "O=C(c1cc(Cc2n[nH]c(=O)c3ccccc23)ccc1F)N1CCN(C(=O)C2CC2)CC1 + COC1C(OC(N)=O)C(O)C(Oc2ccc3c(O)c(NC(=O)c4ccc(O)c(CC=C(C)C)c4)c(=O)oc3c2C)OC1(C)C"
  target_entity: "873145-292-R-J1-PDC complex spheroid viability"
  viability, T/C, %: 96.3
- compound: "CC1COCCN1c1cc(-c2ccnn2C)c2ccnc(-c3ccn[nH]3)c2n1 (stereo unspecified) + Cc1cccc(N(C)C(=O)C2C(O)CCN2c2nc(C)cc(C(F)(F)F)c2C#N)c1"
  target_entity: "873145-292-R-J1-PDC complex spheroid viability"
  viability, T/C, %: 69
- compound: "O=C(c1cc(Cc2n[nH]c(=O)c3ccccc23)ccc1F)N1CCN(C(=O)C2CC2)CC1 + Cc1cccc(N(C)C(=O)C2C(O)CCN2c2nc(C)cc(C(F)(F)F)c2C#N)c1"
  target_entity: "873145-292-R-J1-PDC complex spheroid viability"
  viability, T/C, %: 91
- compound: "COc1cc2cc(C(=O)CCC(=O)O)sc2cc1OC + COC1C(OC(N)=O)C(O)C(Oc2ccc3c(O)c(NC(=O)c4ccc(O)c(CC=C(C)C)c4)c(=O)oc3c2C)OC1(C)C"
  target_entity: "873145-292-R-J1-PDC complex spheroid viability"
  viability, T/C, %: 94.5
- compound: "O=c1[nH]cc(F)c(=O)[nH]1 + Cc1cccc(N(C)C(=O)C2C(O)CCN2c2nc(C)cc(C(F)(F)F)c2C#N)c1"
  target_entity: "873145-292-R-J1-PDC complex spheroid viability"
  viability, T/C, %: 94.7
- compound: "COc1cc(C2c3cc4c(cc3C(OC3OC5COC(C)OC5C(O)C3O)C3COC(=O)C23)OCO4)cc(OC)c1O (stereo unspecified) + Nc1ccc(C#CCN(C(=O)Cc2ncc(C(F)(F)F)cc2C(F)(F)F)c2ccc(F)cc2)nn1"
  target_entity: "873145-292-R-J1-PDC complex spheroid viability"
  viability, T/C, %: 110
- compound: "CCc1cc2c(N3CCc4c(cc(Cn5ccnc5)cc4-c4cn(C)nc4C(F)(F)F)C3=O)ccnc2c(OC)n1 + Nc1ccc(C#CCN(C(=O)Cc2ncc(C(F)(F)F)cc2C(F)(F)F)c2ccc(F)cc2)nn1"
  target_entity: "873145-292-R-J1-PDC complex spheroid viability"
  viability, T/C, %: 97.8
- compound: "CCc1c2c(nc3ccc(O)cc13)-c1cc3c(c(=O)n1C2)COC(=O)[C@]3(O)CC + Nc1ccc(C#CCN(C(=O)Cc2ncc(C(F)(F)F)cc2C(F)(F)F)c2ccc(F)cc2)nn1"
  target_entity: "873145-292-R-J1-PDC complex spheroid viability"
  viability, T/C, %: 47.4
- compound: "C=CCn1c(=O)c2cnc(Nc3ccc(N4CCN(C)CC4)cc3)nc2n1-c1cccc(C(C)(C)O)n1 + COC1C(OC(N)=O)C(O)C(Oc2ccc3c(O)c(NC(=O)c4ccc(O)c(CC=C(C)C)c4)c(=O)oc3c2C)OC1(C)C"
  target_entity: "873145-292-R-J1-PDC complex spheroid viability"
  viability, T/C, %: 76.5
- compound: "CC(C)n1c(=O)n(C)c2cnc3cc(F)c(-c4ccc(OCCCN5CCCCC5)nc4)cc3c21 + Nc1ccc(C#CCN(C(=O)Cc2ncc(C(F)(F)F)cc2C(F)(F)F)c2ccc(F)cc2)nn1"
  target_entity: "873145-292-R-J1-PDC complex spheroid viability"
  viability, T/C, %: 108
- compound: "CC1COCCN1c1cc(C2(O)CC3CCC(C2)O3)c2cnn(-c3ccn[nH]3)c2n1 (stereo unspecified) + COC1C(OC(N)=O)C(O)C(Oc2ccc3c(O)c(NC(=O)c4ccc(O)c(CC=C(C)C)c4)c(=O)oc3c2C)OC1(C)C"
  target_entity: "873145-292-R-J1-PDC complex spheroid viability"
  viability, T/C, %: 58.3
- compound: "CC1COCCN1c1cc(C2(O)CC3CCC(C2)O3)c2cnn(-c3ccn[nH]3)c2n1 (stereo unspecified) + Nc1ccc(C#CCN(C(=O)Cc2ncc(C(F)(F)F)cc2C(F)(F)F)c2ccc(F)cc2)nn1"
  target_entity: "873145-292-R-J1-PDC complex spheroid viability"
  viability, T/C, %: 66
- compound: "CCc1cc2c(N3CCc4c(cc(Cn5ccnc5)cc4-c4cn(C)nc4C(F)(F)F)C3=O)cc(C)nc2c(OC)n1 + Cc1cccc(N(C)C(=O)C2C(O)CCN2c2nc(C)cc(C(F)(F)F)c2C#N)c1"
  target_entity: "873145-292-R-J1-PDC complex spheroid viability"
  viability, T/C, %: 93.1
- compound: "O=C(Nc1ccc(O)c(NS(=O)(=O)c2ccc(F)cc2)c1)c1ccc(-c2ccccc2)cc1 + Nc1ccc(C#CCN(C(=O)Cc2ncc(C(F)(F)F)cc2C(F)(F)F)c2ccc(F)cc2)nn1"
  target_entity: "873145-292-R-J1-PDC complex spheroid viability"
  viability, T/C, %: 105
- compound: "COc1ccc([C@@H](O)c2cc(-c3ncnc4cc(N5CCOCC5)ccc34)c(F)cc2Cl)nn1 + Cc1cccc(N(C)C(=O)C2C(O)CCN2c2nc(C)cc(C(F)(F)F)c2C#N)c1"
  target_entity: "873145-292-R-J1-PDC complex spheroid viability"
  viability, T/C, %: 80.2

Source of measurements: PubChem BioAssay AID1963834
